Target: MOR (Homo sapiens, UniProt P35372)
Construct: Gpa1/Gi3 chimeric G alpha; exogenous or tethered peptides
Sequence (P35372 whole entry): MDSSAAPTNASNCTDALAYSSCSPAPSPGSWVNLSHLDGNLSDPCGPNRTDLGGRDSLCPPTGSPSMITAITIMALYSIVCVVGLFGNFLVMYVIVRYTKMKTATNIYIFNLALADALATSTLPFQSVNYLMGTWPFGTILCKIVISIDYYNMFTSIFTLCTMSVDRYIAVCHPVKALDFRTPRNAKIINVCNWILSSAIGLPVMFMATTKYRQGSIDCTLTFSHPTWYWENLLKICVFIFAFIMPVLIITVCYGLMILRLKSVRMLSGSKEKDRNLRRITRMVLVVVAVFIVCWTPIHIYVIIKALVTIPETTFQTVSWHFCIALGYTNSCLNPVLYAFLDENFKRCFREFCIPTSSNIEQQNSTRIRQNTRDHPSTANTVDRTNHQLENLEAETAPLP
Test: tethered peptide library sorting on GFP fluorescence with NGS
Format: cell-based
Details: library 2; metric: positive count
Experimental Readout: top-performing motif unique for receptor

Sequence: YGGFRCCA
Value Measured: MOR
--
Sequence: YGGFMNYP
Value Measured: MOR
--
Sequence: YGGFMVAT
Value Measured: MOR
--
Sequence: YGGFMGSV
Value Measured: MOR
